IC50 values for the compounds below.
TARGET_DESC: hChoKβ FL (Homo sapiens)
Construct: hChoKβ full length (FL), corresponding to aminoacids 2-395; GST (N, cleaved yes); Prescission Protease recognition site (N, cleaved yes)
TEST_DETAILS: Biochemical kinase inhibition assay (Kinase-Glo Luminescent Kinase Assay) on hChoKβ FL
EXPERIMENTAL_CONTEXT: ATP 5 μM, choline 20 μM, 60 minutes at rt; read-out: IC50 ChoKβ

Example compounds with recorded IC50:
| COMPOUND | IC50 |
| --- | --- |
| Nc1nc(Cl)nc2c1ncn2[C@H]1CC[C@@H](C(=O)Nc2nc3c(s2)CC(F)(F)CC3)CC1 [cpd 188] | > 10 µM |
| Cc1csc(NC(=O)[C@H]2CC[C@@H](n3cnc4c(N)nccc43)CC2)n1 [cpd 204] | > 10 µM |
| Nc1nc(Cl)nc2c1ncn2[C@H]1CC[C@@H](C(=O)Nc2nc(CC(=O)N3CCC(N4CCCCC4)CC3)cs2)CC1 [cpd 86] | > 10 µM |

Looking for the measured IC50 of COc1cccc(NC(=O)[C@H]2CC[C@@H](n3cnc4c(N)nc(-c5cccc(C(=O)Nc6ccc(CN7CCC(N(C)C)CC7)cc6)c5)nc43)CC2)c1 [cpd 31] , can you help?
> 10 µM

Looking for the measured IC50 of Cc1csc(NC(=O)[C@H]2CC[C@@H](n3cnc4c(N)nc(-c5cccc(C(N)=O)c5)nc43)CC2)n1 [cpd 96] , can you help?
> 10 µM

Looking for the measured IC50 of Cc1csc(NC(=O)[C@H]2CC[C@@H](n3cnc4c(N)nc(-c5cccc(C(=O)Nc6ccc(CN7CCC(N(C)C)CC7)cc6)c5)nc43)CC2)n1 [cpd 85, bis-trifluoroacetate] , can you help?
> 10 µM

Looking for the measured IC50 of Nc1nc(Cl)nc2c1ncn2[C@H]1CC[C@@H](C(=O)Nc2nc(CN3CCC(N)CC3)cs2)CC1 [cpd 120] , can you help?
> 10 µM

Looking for the measured IC50 of Cc1csc(NC(=O)[C@H]2CC[C@H](n3cnc4c(N)nc(-c5cccc(C(N)=O)c5)nc43)CC2)n1 [cpd 97] , can you help?
> 10 µM

Looking for the measured IC50 of Nc1nc(Cl)nc2c1ncn2[C@H]1CC[C@@H](C(=O)Nc2nnc(C(F)(F)F)s2)CC1 [cpd 64] , can you help?
> 10 µM

----------
TARGET_DESC: Δ49N-hChoKα (Homo sapiens)
Construct: cDNA fragment 362-1534, corresponding to aminoacids 50-457; GST (N, cleaved yes); Prescission Protease recognition site (N, cleaved yes); made in house; host or cells: Escherichia coli BL21pLysS (DE3)
Sequence (P35790 50-457, stated change not applied): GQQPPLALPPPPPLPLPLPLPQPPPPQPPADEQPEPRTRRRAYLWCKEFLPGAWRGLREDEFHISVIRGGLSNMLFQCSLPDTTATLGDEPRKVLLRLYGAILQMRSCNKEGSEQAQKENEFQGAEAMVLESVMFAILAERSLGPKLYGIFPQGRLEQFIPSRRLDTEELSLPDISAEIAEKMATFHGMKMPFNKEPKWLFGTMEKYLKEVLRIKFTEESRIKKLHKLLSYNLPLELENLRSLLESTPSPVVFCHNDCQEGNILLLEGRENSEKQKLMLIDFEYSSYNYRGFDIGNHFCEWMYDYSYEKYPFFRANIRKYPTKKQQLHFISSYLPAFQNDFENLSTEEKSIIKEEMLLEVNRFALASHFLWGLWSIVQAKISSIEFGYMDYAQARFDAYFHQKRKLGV
TEST_DETAILS: Biochemical kinase inhibition assay (Kinase-Glo Luminescent Kinase Assay) on Δ49N-hChoKα
EXPERIMENTAL_CONTEXT: ATP 5 μM, choline 5 μM, 60 minutes at rt; read-out: IC50 ChoKα
Assign labels as follows, please: yes (1) for IC50 below 200 nM; no (0) for IC50 equal to or exceeding 200 nM.

Field: example entries. Status: answers known.
| COMPOUND | ASSIGNED_CATEGORY |
| --- | --- |
| C#Cc1nc(N)c2ncn([C@H]3CC[C@@H](C(=O)Nc4nc(C)cs4)CC3)c2n1 [cpd 77] | yes (1) |
| Cc1csc(NC(=O)[C@H]2CC[C@@H](n3cnc4c(N)nc(C(N)=O)nc43)CC2)n1 [cpd 146] | yes (1) |
| Nc1nc(F)nc2c1ncn2[C@H]1CC[C@@H](C(=O)Nc2nc3ccc(F)cc3s2)CC1 [cpd 128] | yes (1) |
| COc1cccc(NC(=O)[C@H]2CC[C@@H](n3cnc4c(N)nc(C#CCO)nc43)CC2)c1 [cpd 60] | no (0) |

Could you now consider this next compound?
Check if IC50 falls below 200 nM for C#Cc1nc(N)c2ncn([C@H]3CC[C@@H](C(=O)Nc4nc5c(OC)cccc5s4)CC3)c2n1 [cpd 119] .
yes (1)

----------
TARGET_DESC: hChoKβ FL (Homo sapiens, UniProt Q9Y259)
Construct: hChoKβ full length (FL), corresponding to aminoacids 2-395; GST (N, cleaved yes); Prescission Protease recognition site (N, cleaved yes)
Sequence (Q9Y259 2-395): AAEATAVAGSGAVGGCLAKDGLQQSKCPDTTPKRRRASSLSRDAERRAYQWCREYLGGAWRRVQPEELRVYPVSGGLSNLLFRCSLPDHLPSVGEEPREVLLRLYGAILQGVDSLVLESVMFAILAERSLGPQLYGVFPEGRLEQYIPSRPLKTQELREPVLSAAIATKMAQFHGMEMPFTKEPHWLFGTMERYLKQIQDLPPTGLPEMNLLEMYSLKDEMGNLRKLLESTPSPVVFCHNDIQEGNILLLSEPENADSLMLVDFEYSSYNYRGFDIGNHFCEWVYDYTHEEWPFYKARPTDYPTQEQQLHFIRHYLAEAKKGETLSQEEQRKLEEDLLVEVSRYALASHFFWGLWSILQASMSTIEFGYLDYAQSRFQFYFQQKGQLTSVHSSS
TEST_DETAILS: Biochemical kinase inhibition assay (Kinase-Glo Luminescent Kinase Assay) on hChoKβ FL
EXPERIMENTAL_CONTEXT: ATP 5 μM, choline 20 μM, 60 minutes at rt; read-out: IC50 ChoKβ
pIC50: −log10 of the molar value.
ENDPOINT_LABEL: pIC50

Example molecules with recorded pIC50:
| MOLECULE | TARGET_DESC | ASSAY_VALUE |
| --- | --- | --- |
| Nc1nc(C(F)(F)F)nc2c1ncn2[C@H]1CC[C@@H](C(=O)Nc2nc3ccc(F)cc3s2)CC1 [cpd 132] | hChoKβ FL (Homo sapiens, UniProt Q9Y259) | < 5.00 |
| Cc1csc(NC(=O)[C@H]2CC[C@@H](n3cnc4c(N)nc(-c5cc[nH]n5)nc43)CC2)n1 [cpd 112] | hChoKβ FL (Homo sapiens, UniProt Q9Y259) | < 5.00 |
| Nc1nc(Cl)nc2c1ncn2[C@H]1CC[C@@H](C(=O)Nc2nc3ccc(Cl)cc3s2)CC1 [cpd 90] | hChoKβ FL (Homo sapiens, UniProt Q9Y259) | < 5.00 |
| COc1cccc(NC(=O)[C@H]2CC[C@@H](n3cnc4c(N)nc(-c5ccc(C(=O)Nc6ccc(CN7CCN(C)CC7)cc6)cc5)nc43)CC2)c1 [cpd 29] | hChoKβ FL (Homo sapiens, UniProt Q9Y259) | 5.73 |
| Cc1csc(NC(=O)[C@H]2CC[C@@H](n3cnc4c(N)nc(-c5cccc(O)c5)nc43)CC2)n1 [cpd 103] | hChoKβ FL (Homo sapiens, UniProt Q9Y259) | < 5.00 |

Now consider a different molecule.
Looking for the measured pIC50 of Nc1nc(Cl)nc2c1ncn2[C@H]1CC[C@@H](NC(=O)c2nc3ccccc3s2)CC1 [cpd 140] , can you help?
< 5.00

----------
IC50 values for the molecules below.
TARGET_DESC: hChoKβ FL (Homo sapiens)
Construct: hChoKβ full length (FL), corresponding to aminoacids 2-395; GST (N, cleaved yes); Prescission Protease recognition site (N, cleaved yes)
TEST_DETAILS: Biochemical kinase inhibition assay (Kinase-Glo Luminescent Kinase Assay) on hChoKβ FL
EXPERIMENTAL_CONTEXT: ATP 5 μM, choline 20 μM, 60 minutes at rt; read-out: IC50 ChoKβ

Example molecules with recorded IC50:
| MOLECULE | TARGET_DESC | ASSAY_VALUE |
| --- | --- | --- |
| Nc1nc(F)nc2c1ncn2[C@H]1CC[C@@H](C(=O)Nc2nc3c(s2)CCCC3)CC1 | hChoKβ FL (Homo sapiens) | > 10 µM |
| Nc1nc(Cl)nc2c1ncn2[C@H]1CC[C@@H](C(=O)Nc2nc3ccc(Br)cc3s2)CC1 | hChoKβ FL (Homo sapiens) | > 10 µM |
| COc1cccc(NC(=O)[C@H]2CC[C@@H](n3cnc4c(N)nc(I)nc43)CC2)c1 | hChoKβ FL (Homo sapiens) | > 10 µM |
| CN1CCc2nc(NC(=O)[C@H]3CC[C@@H](n4cnc5c(N)nc(I)nc54)CC3)sc2C1 | hChoKβ FL (Homo sapiens) | > 10 µM |
| C#Cc1nc(N)c2ncn([C@H]3CC[C@@H](C(=O)Nc4cccc(OC)c4)CC3)c2n1 | hChoKβ FL (Homo sapiens) | 4.98 µM |

Now consider a different molecule.
Looking for the measured IC50 of Nc1nc(F)nc2c1ncn2[C@H]1CC[C@@H](C(=O)Nc2nc3c(O)cccc3s2)CC1 , can you help?
> 10 µM

----------
TARGET_DESC: hChoKβ FL (Homo sapiens)
Construct: hChoKβ full length (FL), corresponding to aminoacids 2-395; GST (N, cleaved yes); Prescission Protease recognition site (N, cleaved yes)
TEST_DETAILS: Biochemical kinase inhibition assay (Kinase-Glo Luminescent Kinase Assay) on hChoKβ FL
EXPERIMENTAL_CONTEXT: ATP 5 μM, choline 20 μM, 60 minutes at rt; read-out: IC50 ChoKβ
pIC50: −log10 of the molar value.
pIC50 values for the compounds below.

| MOLECULE | TARGET_DESC | ASSAY_VALUE |
| --- | --- | --- |
| COc1cccc(NC(=O)[C@H]2CC[C@@H](n3cnc4c(N)nc(-c5cccc(C(=O)Nc6ccc(CN7CCN(C)CC7)cc6)c5)nc43)CC2)c1 | hChoKβ FL (Homo sapiens) | < 5.00 |
| CN1CCc2nc(NC(=O)[C@H]3CC[C@@H](n4cnc5c(N)nc(C#C[Si](C)(C)C)nc54)CC3)sc2C1 | hChoKβ FL (Homo sapiens) | < 5.00 |
| Nc1nc(Cl)nc2c1ncn2[C@H]1CC[C@@H](C(=O)Nc2nc3ccc(OC(F)(F)F)cc3s2)CC1 | hChoKβ FL (Homo sapiens) | < 5.00 |
| Nc1nc(Cl)nc2c1ncn2[C@H]1CC[C@@H](C(=O)Nc2nc3cc(F)c(F)cc3s2)CC1 | hChoKβ FL (Homo sapiens) | < 5.00 |
| Nc1nc(F)nc2c1ncn2[C@H]1CC[C@@H](C(=O)Nc2nc3ccc(F)cc3s2)CC1 | hChoKβ FL (Homo sapiens) | < 5.00 |
| C#Cc1nc(N)c2ncn([C@H]3CC[C@@H](C(=O)Nc4nc(C)cs4)CC3)c2n1 | hChoKβ FL (Homo sapiens) | 5.22 |
| COc1cccc(NC(=O)N[C@H]2CC[C@@H](n3cnc4c(N)nc(Cl)nc43)CC2)c1 | hChoKβ FL (Homo sapiens) | 5.22 |
| Cc1csc(NC(=O)[C@H]2CC[C@@H](n3cnc4c(N)nc(C(F)(F)F)nc43)CC2)n1 | hChoKβ FL (Homo sapiens) | < 5.00 |
| CN1CCN(Cc2ccc(NC(=O)Cc3ccc(NC(=O)[C@H]4CC[C@@H](n5cnc6c(N)nc(Cl)nc65)CC4)cc3)cc2C(F)(F)F)CC1 | hChoKβ FL (Homo sapiens) | 6.37 |

Now consider a different compound.
Tell me reported pIC50 for COc1cccc2sc(NC(=O)[C@H]3CC[C@@H](n4cnc5c(N)nc(F)nc54)CC3)nc12 , tested with hChoKβ FL (Homo sapiens).
< 5.00
